System: SNB-75 CNS
Test: NCI-60 one-dose screen, 48 h (100 = growth as untreated, 0 = no growth, -100 = all killed)
Conditions: 10 µM unless noted
About 83,000 compounds went through this panel and 20% of them were active in at least one assay; those are over-represented in the sample as a whole.
Listing of recorded growth by entry.
measure-name: growth (%)

molecule | quantity-unit | data-value
CCS(=O)(=O)OCCO[C@H]1Cc2cc3ccc(=O)oc3cc2OC1(C)C | % | 101
COc1cc2c(c(OC)c1OC)C(=O)CC(c1cccc(C(=O)Nc3cccc(Br)c3)c1)O2 (centres undefined) | % | 75.4
CCOC(=O)c1sc(NS(=O)(=O)c2ccccc2)nc1C | % | 97.9
C#CCCCCCCC[C@@H]1OC(=O)[C@H]([C@@H](C)CC)NC(=O)[C@@H]([C@@H](C)CC)NC(=O)CC(=O)[C@@H]1C | % | 80.9
C/C=C(/C)C(=O)OC1C=C(CO)C(=O)C(OC(=O)C(C)(O)C(C)Cl)C1C(C)C (centres undefined) | % | 20
CCCCCCC(C(=O)OCC)(C(=O)OCC)C1CCCCCC1 | % | 83.7
COc1ccc(CNCCCN2C(=O)c3ccc4c5c(ccc(c35)C2=O)C(=O)N(CCCNCc2ccc(OC)c(OC)c2OC)C4=O)c(OC)c1OC | % | -96.8
O=C(Nc1cccc(Cn2c(=O)[nH]c3ccc(Oc4ncccn4)cc3c2=O)c1)c1cccc(F)c1 | % | 75
CCCCCSc1ccc2nc(NC(=O)OCC)sc2c1 | % | 0.686
